Tested on: HIV (LAV 1)
Experiment: microbe, parasite or virus in culture
Details: 10 mcg/ml, 4-day addition, after 4 days
Each entry below carries its recorded Viral antigen-positive cell percentage.
Observable: Viral antigen-positive cell percentage

> print(dat)
                                   compound                              observable  result.value
1  CC(C)N1CCN(c2c(F)cc3c(=O)c(C(=O)O)cn4c3c2OCC4C)CC1 (racemic)  Viral antigen-positive cell percentage           78%
2  CCN1CCN(c2c(F)cc3c(=O)c(C(=O)O)cn4c3c2OCC4C)CC1 (racemic)  Viral antigen-positive cell percentage           82%
3  CCCN1CCN(c2c(F)cc3c(=O)c(C(=O)O)cn4c3c2OCC4C)CC1 (racemic)  Viral antigen-positive cell percentage           80%
4  C[C@H]1COc2c(N3CCN(C)CC3)c(F)cc3c(=O)c(C(=O)O)cn1c23 [DR-3355, hemihydrate]  Viral antigen-positive cell percentage           88%
5  CCn1cc(C(=O)O)c(=O)c2cc(F)c(N3CCNCC3)cc21  Viral antigen-positive cell percentage           92%
6  Cl.O.O=C(O)c1cn(C2CC2)c2cc(N3CCNCC3)c(F)cc2c1=O  Viral antigen-positive cell percentage           88%
7  CCCCN1CCN(c2c(F)cc3c(=O)c(C(=O)O)cn4c3c2OCC4C)CC1 (racemic)  Viral antigen-positive cell percentage           80%
8  CC1COc2c(N3CCN(C)CC3)c(F)cc3c(=O)c(C(=O)O)cn1c23 (racemic)  Viral antigen-positive cell percentage           74%
9  CCn1cc(C(=O)O)c(=O)c2cc(F)c(N3CCNCC3)nc21  Viral antigen-positive cell percentage           88%

----------
Test system: HIV (LAV 1)
Assay: microbe, parasite or virus in culture
Details: Human immunodeficiency virus 1, CCRF-CEM, read-out: Viable cell percentage, 10 mcg/ml, 4-day addition, after 30 days
Observable: viability at 10 µg/mL (%)

> print(dat)
                                   molecule  result.value
1  CC1COc2c(N3CCN(C)CC3)c(F)cc3c(=O)c(C(=O)O)cn1c23 (racemic)            95
2  CCCN1CCN(c2c(F)cc3c(=O)c(C(=O)O)cn4c3c2OCC4C)CC1 (racemic)            94
3  C[C@H]1COc2c(N3CCN(C)CC3)c(F)cc3c(=O)c(C(=O)O)cn1c23 [DR-3355, hemihydrate]            92
4  CCCCN1CCN(c2c(F)cc3c(=O)c(C(=O)O)cn4c3c2OCC4C)CC1 (racemic)            95
5  CCn1cc(C(=O)O)c(=O)c2cc(F)c(N3CCNCC3)cc21            94
6  CC(C)N1CCN(c2c(F)cc3c(=O)c(C(=O)O)cn4c3c2OCC4C)CC1 (racemic)            94
7  CCN1CCN(c2c(F)cc3c(=O)c(C(=O)O)cn4c3c2OCC4C)CC1 (racemic)            94

----------
System: HIV (LAV 1)
Assay: microbe, parasite or virus in culture
Details: 1 mcg/ml, 4-day addition, after 30 days
Rule: Viable cell count below 10 × 10⁴ cells/ml gives 1, anything at or above gives -1.

> print(dat)
                                   compound  label
1  CCn1cc(C(=O)O)c(=O)c2cc(F)c(N3CCNCC3)cc21      1
2  CCn1cc(C(=O)O)c(=O)c2cc(F)c(N3CCNCC3)nc21      1
3  CCCN1CCN(c2c(F)cc3c(=O)c(C(=O)O)cn4c3c2OCC4C)CC1 (racemic)     -1
4  CC(C)N1CCN(c2c(F)cc3c(=O)c(C(=O)O)cn4c3c2OCC4C)CC1 (racemic)      1
5  C[C@H]1COc2c(N3CCN(C)CC3)c(F)cc3c(=O)c(C(=O)O)cn1c23 [DR-3355, hemihydrate]     -1
6  Cl.O.O=C(O)c1cn(C2CC2)c2cc(N3CCNCC3)c(F)cc2c1=O     -1
7  CCN1CCN(c2c(F)cc3c(=O)c(C(=O)O)cn4c3c2OCC4C)CC1 (racemic)     -1

----------
System: HIV (LAV 1)
Test: microbe, parasite or virus in culture
Settings: 1 mcg/ml, 4-day addition, after 4 days
Reported Viral antigen-positive cell percentage is given for each of the following compounds.
Observable: Viral antigen-positive cell percentage

> print(dat)
                                   compound  result.value
1  CCn1cc(C(=O)O)c(=O)c2cc(F)c(N3CCNCC3)nc21           88%
2  CC1COc2c(N3CCN(C)CC3)c(F)cc3c(=O)c(C(=O)O)cn1c23 (racemic)           88%
3  Cl.O.O=C(O)c1cn(C2CC2)c2cc(N3CCNCC3)c(F)cc2c1=O           83%
4  CCn1cc(C(=O)O)c(=O)c2cc(F)c(N3CCNCC3)cc21           88%
5  CCN1CCN(c2c(F)cc3c(=O)c(C(=O)O)cn4c3c2OCC4C)CC1 (racemic)           72%
6  C[C@H]1COc2c(N3CCN(C)CC3)c(F)cc3c(=O)c(C(=O)O)cn1c23 [DR-3355, hemihydrate]           91%
7  CCCN1CCN(c2c(F)cc3c(=O)c(C(=O)O)cn4c3c2OCC4C)CC1 (racemic)           88%
8  CCCCN1CCN(c2c(F)cc3c(=O)c(C(=O)O)cn4c3c2OCC4C)CC1 (racemic)           82%
9  CC(C)N1CCN(c2c(F)cc3c(=O)c(C(=O)O)cn4c3c2OCC4C)CC1 (racemic)           72%

----------
Experiment: in vivo
Settings: mouse, po
Observable: LD50

> print(dat)
                                   compound  result.value
1  CCn1cc(C(=O)O)c(=O)c2cc(F)c(N3CCNCC3)nc21  ≥ 4000 mg/kg
2  CCn1cc(C(=O)O)c(=O)c2cc(F)c(N3CCNCC3)cc21  ≥ 4000 mg/kg
3  CC1COc2c(N3CCN(C)CC3)c(F)cc3c(=O)c(C(=O)O)cn1c23 (racemic)    5450 mg/kg

----------
Tested on: HIV (LAV 1)
Assay: microbe, parasite or virus in culture
Settings: 10 mcg/ml, 4-day addition, after 30 days
Readings of Viable cell count for the listed compounds
Observable: Viable cell count (× 10⁴ cells/ml)

> print(dat)
                                   compound         observable  result.value
1  CCCN1CCN(c2c(F)cc3c(=O)c(C(=O)O)cn4c3c2OCC4C)CC1 (racemic)  Viable cell count           300
2  Cl.O.O=C(O)c1cn(C2CC2)c2cc(N3CCNCC3)c(F)cc2c1=O  Viable cell count           330
3  C[C@H]1COc2c(N3CCN(C)CC3)c(F)cc3c(=O)c(C(=O)O)cn1c23 [DR-3355, hemihydrate]  Viable cell count           320
4  CC(C)N1CCN(c2c(F)cc3c(=O)c(C(=O)O)cn4c3c2OCC4C)CC1 (racemic)  Viable cell count           300

----------
Test system: HIV (LAV 1)
Experiment: microbe, parasite or virus in culture
Conditions: 2.5 mcg/ml, 4-day addition, after 4 days
Observable: Viable cell count (× 10⁴ cells/ml)

> print(dat)
                                   compound  test.target         observable  result.value
1  C[C@H]1COc2c(N3CCN(C)CC3)c(F)cc3c(=O)c(C(=O)O)cn1c23 [DR-3355, hemihydrate]  HIV (LAV 1)  Viable cell count           190
2  CC1COc2c(N3CCN(C)CC3)c(F)cc3c(=O)c(C(=O)O)cn1c23 (racemic)  HIV (LAV 1)  Viable cell count           260
3  CCn1cc(C(=O)O)c(=O)c2cc(F)c(N3CCNCC3)nc21  HIV (LAV 1)  Viable cell count           240
4  CCn1cc(C(=O)O)c(=O)c2cc(F)c(N3CCNCC3)cc21  HIV (LAV 1)  Viable cell count           240
5  Cl.O.O=C(O)c1cn(C2CC2)c2cc(N3CCNCC3)c(F)cc2c1=O  HIV (LAV 1)  Viable cell count           200

----------
Experiment: in vivo
Settings: mouse, iv
Observable: LD50

> print(dat)
                                   compound  result.value
1  C[C@H]1COc2c(N3CCN(C)CC3)c(F)cc3c(=O)c(C(=O)O)cn1c23 [DR-3355, hemihydrate]   ≥ 200 mg/kg
